Quick reference for IC50 among some compounds
assayed_target: 6×His-CRBN-DDB1 protein (Homo sapiens (Human), UniProt Q96SW2)
Sequence (Q96SW2 whole entry): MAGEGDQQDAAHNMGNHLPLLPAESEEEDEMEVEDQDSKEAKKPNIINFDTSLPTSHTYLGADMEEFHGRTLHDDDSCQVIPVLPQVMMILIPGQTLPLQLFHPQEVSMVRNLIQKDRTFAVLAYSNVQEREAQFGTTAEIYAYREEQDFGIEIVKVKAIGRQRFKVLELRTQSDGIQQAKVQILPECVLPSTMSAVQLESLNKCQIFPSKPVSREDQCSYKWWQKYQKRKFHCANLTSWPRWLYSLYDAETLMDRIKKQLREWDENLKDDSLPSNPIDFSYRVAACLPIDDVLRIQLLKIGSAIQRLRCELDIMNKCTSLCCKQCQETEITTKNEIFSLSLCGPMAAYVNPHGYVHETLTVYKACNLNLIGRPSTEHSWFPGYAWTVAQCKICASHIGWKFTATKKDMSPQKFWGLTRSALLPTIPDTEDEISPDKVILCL
Sequence (Q16531 whole entry partner): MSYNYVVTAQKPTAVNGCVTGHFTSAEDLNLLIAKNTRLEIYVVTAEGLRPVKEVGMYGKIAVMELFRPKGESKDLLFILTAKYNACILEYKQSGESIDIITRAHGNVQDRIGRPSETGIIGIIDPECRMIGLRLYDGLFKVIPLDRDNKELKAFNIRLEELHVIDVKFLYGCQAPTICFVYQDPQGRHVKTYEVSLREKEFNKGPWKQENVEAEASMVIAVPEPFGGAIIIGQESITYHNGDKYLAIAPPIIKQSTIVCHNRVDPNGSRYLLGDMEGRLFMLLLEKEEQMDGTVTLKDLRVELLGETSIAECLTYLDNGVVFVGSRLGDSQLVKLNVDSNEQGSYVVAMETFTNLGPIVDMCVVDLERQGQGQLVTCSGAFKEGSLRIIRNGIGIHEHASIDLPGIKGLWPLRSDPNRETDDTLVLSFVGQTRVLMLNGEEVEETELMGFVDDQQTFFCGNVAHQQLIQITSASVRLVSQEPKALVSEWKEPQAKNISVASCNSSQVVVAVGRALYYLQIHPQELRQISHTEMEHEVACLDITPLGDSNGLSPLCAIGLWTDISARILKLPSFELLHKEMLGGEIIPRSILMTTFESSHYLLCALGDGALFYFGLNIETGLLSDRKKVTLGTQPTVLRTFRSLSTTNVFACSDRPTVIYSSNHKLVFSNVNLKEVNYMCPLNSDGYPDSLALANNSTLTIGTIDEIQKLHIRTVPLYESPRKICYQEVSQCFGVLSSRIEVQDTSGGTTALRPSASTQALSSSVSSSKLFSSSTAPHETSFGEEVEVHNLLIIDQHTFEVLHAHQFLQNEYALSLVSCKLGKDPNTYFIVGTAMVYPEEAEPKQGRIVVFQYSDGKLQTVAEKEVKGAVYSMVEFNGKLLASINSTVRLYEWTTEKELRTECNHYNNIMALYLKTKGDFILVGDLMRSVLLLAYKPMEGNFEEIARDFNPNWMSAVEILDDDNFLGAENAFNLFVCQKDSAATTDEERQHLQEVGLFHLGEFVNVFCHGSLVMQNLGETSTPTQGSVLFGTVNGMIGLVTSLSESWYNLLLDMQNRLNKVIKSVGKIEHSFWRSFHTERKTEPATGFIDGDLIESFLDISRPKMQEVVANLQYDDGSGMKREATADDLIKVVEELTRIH
test_details: CRBN fluorescence polarization assay
Format: binding
test_parameters: cereblon binding, class symbols; read-out: CRBN FP IC50

>>> value("Cc1ccc(S(=O)(=O)Nc2ccc3c(c2)C(=O)N(C2CCC(=O)NC2=O)C3)cc1 (stereo not drawn) [Compound 25]")
"< 1000 nM"
>>> value("COc1ccc(S(=O)(=O)Nc2ccc3c(c2)CN(C2CCC(=O)NC2=O)C3=O)cc1 (stereo not drawn) [Compound 40]")
"< 1000 nM"
>>> value("O=C1CCC(N2C(=O)c3ccc(NS(=O)(=O)c4ccc(F)c(Cl)c4)cc3C2=O)C(=O)N1 (stereo not drawn) [Compound 17]")
"< 1000 nM"
>>> value("CC(C)(C)c1ccc(S(=O)(=O)Nc2ccc3c(c2)C(=O)N(C2CCC(=O)NC2=O)C3=O)cc1 (stereo not drawn) [Compound 3]")
"< 1000 nM"

What measured IC50 goes with O=C1CCC(N2C(=O)c3ccc(NS(=O)(=O)c4ccc5c(c4)OCCO5)cc3C2=O)C(=O)N1 (stereo not drawn) [Compound 59] ?
< 1000 nM

What measured IC50 goes with COc1ccc(S(=O)(=O)Nc2ccc3c(c2)C(=O)N(C2CCC(=O)NC2=O)C3)cc1 (stereo not drawn) [Compound 24] ?
1000 to 10000 nM

What measured IC50 goes with O=C1CCC(N2C(=O)c3ccc(NS(=O)(=O)c4ccc(F)c(F)c4)cc3C2=O)C(=O)N1 (stereo not drawn) [Compound 76] ?
1000 to 10000 nM

What measured IC50 goes with O=C1CCC(N2C(=O)c3ccc(NS(=O)(=O)c4ccc(C5CCCCC5)cc4)cc3C2=O)C(=O)N1 (stereo not drawn) [Compound 80] ?
1000 to 10000 nM

What measured IC50 goes with O=C1CCC(N2C(=O)c3ccc(NS(=O)(=O)c4cccc(Cl)c4Cl)cc3C2=O)C(=O)N1 (stereo not drawn) [Compound 88] ?
< 1000 nM

What measured IC50 goes with Cc1cccc(S(=O)(=O)Nc2ccc3c(c2)C(=O)N(C2CCC(=O)NC2=O)C3=O)c1 (stereo not drawn) [Compound 19] ?
< 1000 nM

What measured IC50 goes with O=C1CCC(N2C(=O)c3ccc(NS(=O)(=O)c4cccc(F)c4)cc3C2=O)C(=O)N1 (stereo not drawn) [Compound 72] ?
< 1000 nM

What measured IC50 goes with COc1cccc(S(=O)(=O)Nc2ccc3c(c2)CN(C2CCC(=O)NC2=O)C3=O)c1 (stereo not drawn) [Compound 47] ?
< 1000 nM

What measured IC50 goes with O=C1CCC(N2C(=O)c3ccc(NS(=O)(=O)c4ccc(-c5ccccc5)cc4)cc3C2=O)C(=O)N1 (stereo not drawn) [Compound 62] ?
< 1000 nM

What measured IC50 goes with O=C1CCC(N2C(=O)c3ccc(NS(=O)(=O)c4ccccc4Br)cc3C2=O)C(=O)N1 (stereo not drawn) [Compound 98] ?
< 1000 nM

What measured IC50 goes with O=C1CCC(N2Cc3ccc(NS(=O)(=O)c4cccc(OC(F)(F)F)c4)cc3C2=O)C(=O)N1 (stereo not drawn) [Compound 27] ?
< 1000 nM
